Where these numbers come from: paper PMC8725837

pIC50: −log10 of the molar value.
Here's a batch of compounds along with measured pIC50 for IGF-1R (Homo sapiens, UniProt P08069).
property: pIC50

Look over these answered cases.
Clc1ccc(-c2cc(OCCCN3CCOCC3)c3cc4c(cc3n2)OCO4)cc1 [12b] | 5.15
COc1cc2nc(-c3ccc(C(F)(F)F)cc3)cc(OCCCNCC3CCCO3)c2cc1OC (stereo not drawn) | 5.77
COc1cc2nc(-c3ccc(Cl)cc3)cc(OCCCNC3CCCCC3)c2cc1OC | 5.09

1 = COc1ccc(-c2ccc3nc(-c4ccc(Cl)cc4)cc(OCCCn4ccnc4)c3c2)cc1 [20a]
2 = Clc1ccc(-c2cc(OCCCn3ccnc3)c3cc(Br)ccc3n2)cc1 [16a]
Exam item: Kindly identify the item with the lower pIC50 figure among these two: 1 and 2 To answer, give the label that identifies your chosen option.
Marked response: 2

* * *

target.under.test: UniProtKB P08069
property: IC50 (nM)

COc1cc2nc(-c3ccc(C)cc3)cc(OCCCN3CCN(C)CC3)c2cc1OC [6k] | 2400

P = Clc1ccc(-c2cc(OCCCN3CCOCC3)c3cc(Br)ccc3n2)cc1 [16b]
Q = COc1cc2nc(-c3ccc(C)cc3)cc(OCCCNC3CCCCC3)c2cc1OC [6l]
R = COc1cc2nc(-c3ccc(C)cc3)cc(OCCCn3ccnc3)c2cc1OC [6o]
Exam item: Please put the entries in order of rising IC50. Give the labels in the order requested.
Marked response: R, Q, P
(R: 408 nM, Q: 1820 nM, P: 3490 nM)
